- study.target: Albumin (Bos taurus, UniProt P02769)
- Sequence (P02769 whole entry): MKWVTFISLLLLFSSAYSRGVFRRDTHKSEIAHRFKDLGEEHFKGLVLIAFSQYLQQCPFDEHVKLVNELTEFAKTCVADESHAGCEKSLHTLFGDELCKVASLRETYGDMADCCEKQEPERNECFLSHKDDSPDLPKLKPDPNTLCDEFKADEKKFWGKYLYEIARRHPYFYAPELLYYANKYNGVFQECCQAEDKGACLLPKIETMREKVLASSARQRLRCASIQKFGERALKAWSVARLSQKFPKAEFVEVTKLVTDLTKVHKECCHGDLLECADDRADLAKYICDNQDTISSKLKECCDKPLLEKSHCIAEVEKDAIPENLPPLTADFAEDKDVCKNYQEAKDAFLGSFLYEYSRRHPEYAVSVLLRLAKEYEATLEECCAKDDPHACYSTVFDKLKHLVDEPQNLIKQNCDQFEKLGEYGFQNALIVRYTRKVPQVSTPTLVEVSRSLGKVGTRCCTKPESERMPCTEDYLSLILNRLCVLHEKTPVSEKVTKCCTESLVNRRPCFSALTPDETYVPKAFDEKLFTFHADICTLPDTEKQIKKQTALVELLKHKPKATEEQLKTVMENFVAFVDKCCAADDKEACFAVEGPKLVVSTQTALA
- protocol.description: Antiglycation activity in bovine serum albumin assessed as inhibition of fructosamines formation at 200 uM in presence of glucose
- setup.conditions: cattle
observable: inhibition at 200 µM (%)
Hi! Could you send only the number? It should be in %, unit omitted.

Query: I would be grateful if you could share the reported inhibition at 200 µM for COc1cc(C(=O)OC[C@H]2O[C@H]3c4c(cc(O)c(OC)c4O)C(=O)O[C@@H]3[C@@H](O)[C@@H]2O)cc(OC)c1OC .
Reply: 42.1

Query: I would be grateful if you could share the reported inhibition at 200 µM for COc1c(O)cc2c(c1O)[C@@H]1O[C@H](COC(=O)c3ccc([N+](=O)[O-])cc3)[C@@H](O)[C@H](O)[C@H]1OC2=O .
Reply: 21.4

Query: I would be grateful if you could share the reported inhibition at 200 µM for COc1c(O)cc2c(c1O)[C@@H]1O[C@H](CO)[C@@H](O)[C@H](O)[C@H]1OC2=O .
Reply: 20.6

Query: I would be grateful if you could share the reported inhibition at 200 µM for COc1c(O)cc2c(c1O)[C@@H]1O[C@H](COC(=O)c3cc(O)c(O)c(O)c3)[C@@H](O)[C@H](O)[C@H]1OC2=O .
Reply: 22.2
